Species: Rattus norvegicus
measurement-description: Open TG-GATES - Regimen: Single
Format: toxicity, organism-based, Sprague-Dawley
Set-up: regimen Single, gender Male, age 6 weeks
settings: in vivo, po, 0 mg/kg, 6 h, tissue Blood, route gavage, dose level Control
Tag: class 1 if measured WBC is not below 100 x10_2/uL, class 0 if it is.

Example entries begin here.
• NC(N)=Nc1nc(CSCCC(N)=NS(N)(=O)=O)cs1 [FAMOTIDINE] = class 0
• COc1cc2c(c(OC)c1OC)-c1ccc(OC)c(=O)cc1[C@@H](NC(C)=O)CC2 [COLCHICINE] = class 1
• Cc1ccc(C)c(OCCCC(C)(C)C(=O)O)c1 [GEMFIBROZIL] = class 0
• O=C(CCCN1CCC(O)(c2ccc(Cl)cc2)CC1)c1ccc(F)cc1 [HALOPERIDOL] = class 0
• NNC(=O)c1ccncc1 [ISONIAZID] = class 0

Ask: Is it the case that CC1=C(/C=C/C(C)=C/C=C/C(C)=C/CO)C(C)(C)CCC1 [RETINOL] has WBC reaching or exceeding 100 x10_2/uL?
Result: class 1

Ask: I'd appreciate it if you could say whether CN1C(=O)CN=C(c2ccccc2)c2cc(Cl)ccc21 [DIAZEPAM] has WBC at least equal to 100 x10_2/uL.
Result: class 1

Ask: Kindly determine if WBC recorded for CN(C)CCCN1c2ccccc2CCc2ccc(Cl)cc21 [CLOMIPRAMINE] is above or exactly 100 x10_2/uL.
Result: class 0

----------
Species on record: Rattus norvegicus
measurement-description: Open TG-GATES - Regimen: Daily Repeat
Type: toxicity, organism-based, Sprague-Dawley
Parameters: regimen Daily Repeat, gender Male, age 6 weeks
settings: in vivo, po, 0 mg/kg, 72 h, tissue Blood, route gavage, dose level Control, time 3 day
measure: Bas (%)
Return type: number; implicit unit %.

* CN(C)CCN(Cc1cccs1)c1ccccn1 | 0
* CC1=C(/C=C/C(C)=C/C=C/C(C)=C/CO)C(C)(C)CCC1 | 0
* CC(C)OC(=O)C(C)(C)Oc1ccc(C(=O)c2ccc(Cl)cc2)cc1 [FENOFIBRATE] | 0.2

Ask: Hello, please tell me recorded Bas for this one: `O=C(CCCN1CCC(O)(c2ccc(Cl)cc2)CC1)c1ccc(F)cc1`
Result: 0

Ask: Input `CN(C)CCCN1c2ccccc2CCc2ccccc21` , output reported Bas.
Result: 0

Ask: Annotate the compound CCOc1ccc(NC(=O)CC(C)O)cc1 (stereo unspecified) with its measured Bas.
Result: 0

----------
The entries below come with measured Lym values attached.
Species on record: Rattus norvegicus
measurement-description: Open TG-GATES - Regimen: Single
Type: toxicity, organism-based, Sprague-Dawley
Set-up: regimen Single, gender Male, age 6 weeks
settings: in vivo, po, 300 mg/kg, 24 h, tissue Blood, route gavage, dose level Middle
Provide only the numeric value, understood in %.

* NC(N)=Nc1nc(CSCCC(N)=NS(N)(=O)=O)cs1 | 78.2
* CCOC(=O)CCC(=O)O[C@H]1[C@H](O[C@@H]2[C@@H](C)[C@H](O[C@H]3C[C@@](C)(OC)[C@@H](O)[C@H](C)O3)[C@@H](C)C(=O)O[C@H](CC)[C@@](C)(O)[C@H](O)[C@@H](C)C(=O)[C@H](C)C[C@@]2(C)O)O[C@H](C)C[C@@H]1N(C)C [ERYTHROMYCIN ETHYLSUCCINATE] | 85
* COC1=CC(=O)C[C@@H](C)[C@]12Oc1c(Cl)c(OC)cc(OC)c1C2=O | 76.2

Let us move to another entry and its Lym.
Ask: Please list Lym recorded for the compound COc1ccc2[nH]c([S+]([O-])Cc3ncc(C)c(OC)c3C)nc2c1 (centres undefined)
Result: 81.2
